Numbers sourced from patent US20250326813A1.

study_system: T1, human IL2Rα Fc fusion protein (human, UniProt P01589 22-213, limits assumed)
T1 construct: also called CD25; not shown: Fc part
T1 sequence (looked up): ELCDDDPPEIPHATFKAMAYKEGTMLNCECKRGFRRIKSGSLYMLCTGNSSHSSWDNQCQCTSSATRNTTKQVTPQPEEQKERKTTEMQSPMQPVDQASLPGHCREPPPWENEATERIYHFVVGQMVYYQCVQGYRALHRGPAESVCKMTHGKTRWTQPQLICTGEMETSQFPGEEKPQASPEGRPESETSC
experiment_summary: SPR (Biacore T200), receptor captured on Protein A chip, IL2 at 100 nM and 20 nM
pKd: −log10 of the molar value.
quantity_kind: pKd

Below, each entry is followed by its recorded pKd result.
IN: Please look up its pKd: EP565 (clone 2021EP22-F10), E. coli-produced (ligand) APASSSTKKTQLQLEHLLLDLQMILNGINNYKNPKLTRMLTFKFYMPKKATELKHLQCLEEELKPLEEVLNLAQSKNFHLRSRQLISNMNGIILKLKGSETTFMCEYADETATIVEFLNRWITFSQSIISTLT
OUT: 6.85

IN: Please look up its pKd: EP567 (clone 2021EP21-C04), E. coli-produced (ligand) APASSSTKKTQLQLEHLLLDLQMILNGINNYKNPKLTRMLTFKFYMPKKATELKHLQCLEEELKPLEEVLNLAQSKNFHLSLREPIGNIVTSVRELKGSETTFMCEYADETATIVEFLNRWITFSQSIISTLT
OUT: 6.73

[a] EP574 (clone 2021EP22-B04), E. coli-produced (ligand) APASSSTKKTQLQLEHLLLDLQMILNGINNYKNPKLTRMLTFKFYMPKKATELKHLQCLEEELKPLEEVLNLAQSKNFHLFTKDLTSTMQILVLQLKGSETTFMCEYADETATIVEFLNRWITFSQSIISTLT
[b] EP573 (clone 2021EP16-E02), E. coli-produced (ligand) APASSSTKKTQLQLEHLLLDLQMILNGINNYKNPKLTRMLTFKFYMPKKATELKHLQCLEEELKPLEEVLNLAQSKNFHLNRTDLVGDVNATIKALKGSETTFMCEYADETATIVEFLNRWITFSQSIISTLT
[c] EP585 (clone 2021EP16-C03), E. coli-produced (ligand) APASSSTKKTQLQLEHLLLDLQMILNGINNYKNPKLTRMLTFKFYMPKKATELKHLQCLEEELKPLEEVLNLAQSKNFHLSPPDLIANMAVYFVELKGSETTFMCEYADETATIVEFLNRWITFSQSIISTLT
[d] EP566 (clone 2021EP22-H09), E. coli-produced (ligand) APASSSTKKTQLQLEHLLLDLQMILNGINNYKNPKLTRMLTFKFYMPKKATELKHLQCLEEELKPLEEVLNLAQSKNFHLRLTHLRNVIGVILVQLKGSETTFMCEYADETATIVEFLNRWITFSQSIISTLT
[e] EP581 (clone 2021EP16-C10), E. coli-produced (ligand) APASSSTKKTQLQLEHLLLDLQMILNGINNYKNPKLTRMLTFKFYMPKKATELKHLQCLEEELKPLEEVLNLAQSKNFHLRSREVVSRIDAIILELKGSETTFMCEYADETATIVEFLNRWITFSQSIISTLT
IN: Order the items by recorded pKd; the first position goes to the largest value. Kindly provide the labels arranged according to the requested ordering.
OUT: b, e, a, d, c
